Please provide measured enrichment ratio for the entries that follow.
B1: PhoQ; a variant is named by its letters at X, in order, P23837 (parent)
chain: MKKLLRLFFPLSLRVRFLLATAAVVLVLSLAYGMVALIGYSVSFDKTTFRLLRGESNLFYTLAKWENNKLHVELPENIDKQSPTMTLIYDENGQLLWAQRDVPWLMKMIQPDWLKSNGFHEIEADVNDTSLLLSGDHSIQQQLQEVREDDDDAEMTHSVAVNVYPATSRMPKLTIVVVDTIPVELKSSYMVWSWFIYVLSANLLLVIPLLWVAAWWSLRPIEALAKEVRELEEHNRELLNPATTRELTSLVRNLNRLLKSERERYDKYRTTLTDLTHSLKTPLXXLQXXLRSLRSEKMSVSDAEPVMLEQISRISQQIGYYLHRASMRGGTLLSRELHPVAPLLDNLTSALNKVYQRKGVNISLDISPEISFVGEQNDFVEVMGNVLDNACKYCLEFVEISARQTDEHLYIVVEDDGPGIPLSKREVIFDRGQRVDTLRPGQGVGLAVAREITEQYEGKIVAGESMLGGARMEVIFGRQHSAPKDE

Variants of: B1
Assay: enrichment ratio after two sorts for PhoP signalling (ratio (wild type AVST 3.29)); higher = more functional
Conditions: with PhoP (E. coli)
The full ranking holds about 140,000 sequences; the median of “enrichment ratio after two sorts for PhoP signalling” is about 0, and the highest 2% start at about 11. This is one part of a sample in which the highest values are shown more often than they occur.

// worked examples, enrichment ratio included
// recorded enrichment ratio for "YDCD" : ≤ 0.25

Briefly, enrichment ratio measured for "NNCI" : ≤ 0.25

The variant "SITL" showed enrichment ratio equal to 18.5

enrichment ratio reported for this variant "GMTL" : 15.2

// input: 8 variants below; output: enrichment ratio for each
1. SFTL
2. RNQK
3. IGRG
4. GADV
5. YHSF
6. PMKN
7. SRTL
8. DITL

Out:
1: 1.44; 2: ≤ 0.25; 3: ≤ 0.25; 4: ≤ 0.25; 5: ≤ 0.25; 6: ≤ 0.25; 7: 0.897; 8: ≤ 0.25

Respectfully, I request enrichment ratio for each entry included below.
1. MMTQ
2. KYTL
3. CTTL
4. SRID
5. STHN

Out:
1: ≤ 0.25; 2: ≤ 0.25; 3: ≤ 0.25; 4: ≤ 0.25; 5: ≤ 0.25

I need enrichment ratio for every entry listed below, if you could help.
1. HTPK
2. QQLA
3. HLLG
4. NEEL
5. LTTL

Out:
1: ≤ 0.25; 2: ≤ 0.25; 3: ≤ 0.25; 4: ≤ 0.25; 5: ≤ 0.25

Where do the numbers come from? From a collection of fitness landscapes (doi:10.1126/science.1257360).
